Test: BSK_SAg_Proliferation: Cell Proliferation Assessment in the BioMAP Diversity Plus: SAg Assay (AID 2283095);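 further: relative cell number as total protein by SRB absorbance in sub-confluent culture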
Conditions: primary human HUVEC with PBMC
Activity calls are given as the source filed them. How the source made its calls: active means hit-call score of the fitted dose curve at least 0.9, where 1 is the maximum; inactive means score below 0.9.
Classes used: TRUE = active, FALSE = inactive

compound: CC(C)=CC1C(C(=O)OCN2C(=O)C3=C(CCCC3)C2=O)C1(C)C (stereo not drawn)
class assignment: TRUE
//
compound: O=C(O)c1cc(Oc2ccc(C(F)(F)F)cc2Cl)ccc1[N+](=O)[O-]
class assignment: FALSE
//
compound: Cc1nn(-c2cc(NS(C)(=O)=O)c(Cl)cc2Cl)c(=O)n1C(F)F
class assignment: FALSE
//
compound: C#CCC1=C(C)C(OC(=O)C2C(C=C(C)C)C2(C)C)CC1=O (stereo not drawn)
class assignment: TRUE
//
compound: CCCSP(=O)(OCC)SCCC
class assignment: FALSE
//
compound: COP(=O)(NC(C)=O)SC (stereo not drawn)
class assignment: FALSE
//
compound: CCOP(=S)(OCC)OC(Cl)C(Cl)(Cl)Cl (stereo not drawn)
class assignment: TRUE
//
compound: CCOP(=O)(NC(C)C)Oc1ccc(SC)c(C)c1 (stereo not drawn)
class assignment: FALSE
//
compound: COP(=O)(OC)C(O)C(Cl)(Cl)Cl (stereo not drawn)
class assignment: TRUE
//
compound: CCCCOC(=O)c1ccccc1C(=O)O
class assignment: FALSE
//
compound: CC(C)N(C(=O)SCC(Cl)=C(Cl)Cl)C(C)C
class assignment: TRUE
//
compound: CCOP(=S)(OCC)SCCSCC
class assignment: FALSE
//
compound: C#CC(C)(C)NC(=O)c1cc(Cl)cc(Cl)c1
class assignment: FALSE

* * *

Test: CCTE_Mundy_HCI_Cortical_NOG_NeuriteLength: CCTE's Neurite Outgrowth Assay in rat cortical cells for Neurite Length, Mundy Lab (AID 2284213)
The source made the active and inactive calls. The calls were made as follows: active = hit-call score of the fitted dose curve at least 0.9, where 1 is the maximum; inactive = score below 0.9.
Classes used: Y = active, N = inactive

molecule: S=C1NCCN1
class assignment: N

molecule: CCOP(=O)(SC(C)CC)N1CCSC1=O (configuration not stated)
class assignment: N

molecule: CN1COCN(Cc2cnc(Cl)s2)C1=N[N+](=O)[O-]
class assignment: N

molecule: COP(=O)(NC(C)=O)SC (configuration not stated)
class assignment: N

molecule: CCOP(=S)(OCC)Oc1cc(C)nc(C(C)C)n1
class assignment: N

molecule: C[N+]1(C)CCCCC1
class assignment: N

molecule: CCCSP(=O)(OCC)SCCC
class assignment: N

molecule: CCOP(=O)(NC(C)C)Oc1ccc(SC)c(C)c1 (configuration not stated)
class assignment: N

molecule: COP(=O)(OC)C(O)C(Cl)(Cl)Cl (configuration not stated)
class assignment: N

molecule: CC1=NNC(=O)N(/N=C/c2cccnc2)C1
class assignment: N

molecule: C=C(C)[C@H]1Cc2c(ccc3c2O[C@@H]2COc4cc(OC)c(OC)cc4[C@@H]2C3=O)O1
class assignment: Y

molecule: CN(C)[C@@H]1C(=O)C(C(N)=O)=C(O)[C@@]2(O)C(=O)C3=C(O)c4c(O)cccc4[C@@](C)(O)[C@H]3[C@H](O)[C@@H]12
class assignment: N

molecule: CCOP(=S)(OCC)Oc1ccc2c(C)c(Cl)c(=O)oc2c1
class assignment: Y

molecule: O=[N+]([O-])c1cc(C(F)(F)F)c(Cl)c([N+](=O)[O-])c1Nc1ncc(C(F)(F)F)cc1Cl
class assignment: Y

molecule: CSC1=N[C@@](C)(c2ccccc2)C(=O)N1Nc1ccccc1
class assignment: N

molecule: CC(=NC#N)N(C)Cc1ccc(Cl)nc1
class assignment: N

molecule: CCOP(=O)(OCC)Oc1cc(C)nc(C(C)C)n1
class assignment: N
